# Test Method Notes: ATG_CMV_CIS: Attagene CIS-FACTORIAL HepG2 Assay for human CMV (Internal Marker) (AID 2282928);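 also: endpoint acts as a background internal control marker rather than a target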
# Test Context: HepG2 CMV promoter reporter, transcription factor profiling; actives raise or lower the signal
Activity calls are given as the source filed them. The calls were made as follows: active = hit-call score of the fitted dose curve at least 0.9, where 1 is the maximum; inactive = score below 0.9.
Measurement Kind: AC50

Examples from the recorded data:
1. COC(=O)c1ccccc1C(=O)OC ... inactive
2. COc1nc(C)nc(NC(=O)NS(=O)(=O)c2ccccc2Cl)n1 ... inactive
3. COP(N)(=O)SC (stereo unspecified) ... inactive
4. Cc1ccc(-c2c(Cl)nc(C#N)n2S(=O)(=O)N(C)C)cc1 ... inactive
5. O=C(O)COc1nc(Cl)c(Cl)cc1Cl ... inactive
6. CC(C)C1(C)N=C(c2nc3ccccc3cc2C(=O)O)NC1=O (stereo unspecified) ... inactive
7. COC(=O)C(C)Oc1ccc(Oc2ccc(Cl)cc2Cl)cc1 (stereo unspecified) ... inactive
8. COc1cnc(OC)n2nc(NS(=O)(=O)c3c(OCC(F)F)cccc3C(F)(F)F)nc12 ... inactive
9. CCCCNC(=O)n1c(NC(=O)OC)nc2ccccc21 ... inactive
10. N#Cc1cc(Br)c(O)c(Br)c1 ... inactive

Asked: Tell me its AC50 given CC(C)Oc1cc(-n2nc(C(C)(C)C)oc2=O)c(Cl)cc1Cl as the entry.
Given back: 6.05 µM (active)

Asked: Tell me AC50 reported for CCOP(=S)(OCC)SCn1c(=O)oc2cc(Cl)ccc21
Given back: 26.4 µM (active)

Asked: Report AC50, nothing else, for this compound: COC(=O)N(OC)c1ccccc1COc1ccn(-c2ccc(Cl)cc2)n1
Given back: 0.457 µM (active)

Asked: Please give the documented AC50 of C=CCC1=C(C)[C@@H](OC(=O)[C@@H]2[C@@H](C=C(C)C)C2(C)C)CC1=O
Given back: inactive

Asked: Kindly indicate its recorded AC50. Item: CCc1nn(C)c(C(=O)NCc2ccc(C(C)(C)C)cc2)c1Cl
Given back: 0.171 µM (active)

Asked: Hello, please tell me recorded AC50 for this one: COc1nc(NC(C)C)nc(NC(C)C)n1
Given back: inactive

Asked: Identify measured AC50 corresponding to CCCCC(CC)COC(=O)c1ccccc1C(=O)OCC(CC)CCCC (stereo unspecified)
Given back: inactive

Asked: Quick one: give measured AC50 for CCON=C(CC)C1=C(O)CC(c2c(C)cc(C)cc2C)CC1=O (stereo unspecified)
Given back: inactive

====

# Read-out: NAD(P)H dehydrogenase [quinone] 1 (NQO1), NQO1 (gene 1728)
# Test Method Notes: LTEA_HepaRG_NQO1: Life Technologies and Expression Analysis (LTEA) Assay for NAD(P)H dehydrogenase [quinone] 1 (NQO1) using HepaRG (AID 2283526)
# Test Context: mRNA level, 48 h; actives raise or lower the signal
Activity calls are given as the source filed them. The calls were made as follows: active = hit-call score of the fitted dose curve at least 0.9, where 1 is the maximum; inactive = score below 0.9.
Permitted responses: active, inactive

Record excerpt, results attached:
1) CC(C)C1(C)N=C(c2nc3ccccc3cc2C(=O)O)NC1=O (centres undefined) ... inactive
2) Oc1ccccc1-c1ccccc1 ... inactive
3) N#Cc1cc(Br)c(O)c(Br)c1 ... active

Now take the following molecule into account.
Asked: What call does the record list for Fc1ccc(Oc2ccnc3cc(Cl)cc(Cl)c23)cc1 ?
Given back: inactive
